# assayed.system: PD-1 (Homo sapiens (Human)) (UniProt Q15116)
# Sequence (Q15116 21-288 limits assumed): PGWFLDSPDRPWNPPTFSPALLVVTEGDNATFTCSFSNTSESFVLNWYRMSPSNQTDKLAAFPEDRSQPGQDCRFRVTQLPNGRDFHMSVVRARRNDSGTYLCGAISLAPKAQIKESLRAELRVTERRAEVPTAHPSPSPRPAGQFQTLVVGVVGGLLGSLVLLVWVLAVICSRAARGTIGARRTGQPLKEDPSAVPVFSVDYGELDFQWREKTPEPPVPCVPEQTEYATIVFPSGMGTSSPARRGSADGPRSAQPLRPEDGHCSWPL
# protocol.description: flow cytometry, Jurkat/PD-1 cells; vs wildtype PD-L2 IgV-Fc
The entries below come with measured Fold increase over wildtype PD-L2 IgV-Fc values attached.
Give the value, in units of fold, as a plain number.

Worked set:
For the binder shown here, variant PD-L2 IgV-Fc E44D (Fc fusion, not shown: a dimerising Fc or GST; small tags and cut ends) LFTVTVPKELYIIEHGSNVTLECNFDTGSHVNLGAITASLQKVDNDTSPHRERATLLEEQLPLGKASFHIPQVQVRDEGQYQCIIIYGVAWDYKYLTLK , give the reported Fold increase over wildtype PD-L2 IgV-Fc.
0.3

Can you check variant PD-L2 IgV-Fc Q82R, V89D (Fc fusion, not shown: a dimerising Fc or GST; small tags and cut ends) LFTVTVPKELYIIEHGSNVTLECNFDTGSHVNLGAITASLQKVENDTSPHRERATLLEEQLPLGKASFHIPQVQVRDEGQYRCIIIYGDAWDYKYLTLK next?
4.57

Same lookup for variant PD-L2 IgV-Fc I13V, S67L, Q82R, V89D (Fc fusion, not shown: a dimerising Fc or GST; small tags and cut ends) FTVTVPKELYIVEHGSNVTLECNFDTGSHVNLGAITASLQKVENDTSPHRERATLLEEQLPLGKALFHIPQVQVRDEGQYRCIIIYGDAWDYKYLTLK , please.
5.99

Next:
Which Fold increase over wildtype PD-L2 IgV-Fc value belongs to variant PD-L2 IgV-Fc E59G, Q82R (Fc fusion, not shown: a dimerising Fc or GST; small tags and cut ends) LFTVTVPKELYIIEHGSNVTLECNFDTGSHVNLGAITASLQKVENDTSPHRERATLLEGQLPLGKASFHIPQVQVRDEGQYRCIIIYGVAWDYKYLTLK ?
1.29
